- system under test: Tyrosine-protein kinase JAK3 (Homo sapiens, UniProt P52333)
- Sequence (P52333 whole entry): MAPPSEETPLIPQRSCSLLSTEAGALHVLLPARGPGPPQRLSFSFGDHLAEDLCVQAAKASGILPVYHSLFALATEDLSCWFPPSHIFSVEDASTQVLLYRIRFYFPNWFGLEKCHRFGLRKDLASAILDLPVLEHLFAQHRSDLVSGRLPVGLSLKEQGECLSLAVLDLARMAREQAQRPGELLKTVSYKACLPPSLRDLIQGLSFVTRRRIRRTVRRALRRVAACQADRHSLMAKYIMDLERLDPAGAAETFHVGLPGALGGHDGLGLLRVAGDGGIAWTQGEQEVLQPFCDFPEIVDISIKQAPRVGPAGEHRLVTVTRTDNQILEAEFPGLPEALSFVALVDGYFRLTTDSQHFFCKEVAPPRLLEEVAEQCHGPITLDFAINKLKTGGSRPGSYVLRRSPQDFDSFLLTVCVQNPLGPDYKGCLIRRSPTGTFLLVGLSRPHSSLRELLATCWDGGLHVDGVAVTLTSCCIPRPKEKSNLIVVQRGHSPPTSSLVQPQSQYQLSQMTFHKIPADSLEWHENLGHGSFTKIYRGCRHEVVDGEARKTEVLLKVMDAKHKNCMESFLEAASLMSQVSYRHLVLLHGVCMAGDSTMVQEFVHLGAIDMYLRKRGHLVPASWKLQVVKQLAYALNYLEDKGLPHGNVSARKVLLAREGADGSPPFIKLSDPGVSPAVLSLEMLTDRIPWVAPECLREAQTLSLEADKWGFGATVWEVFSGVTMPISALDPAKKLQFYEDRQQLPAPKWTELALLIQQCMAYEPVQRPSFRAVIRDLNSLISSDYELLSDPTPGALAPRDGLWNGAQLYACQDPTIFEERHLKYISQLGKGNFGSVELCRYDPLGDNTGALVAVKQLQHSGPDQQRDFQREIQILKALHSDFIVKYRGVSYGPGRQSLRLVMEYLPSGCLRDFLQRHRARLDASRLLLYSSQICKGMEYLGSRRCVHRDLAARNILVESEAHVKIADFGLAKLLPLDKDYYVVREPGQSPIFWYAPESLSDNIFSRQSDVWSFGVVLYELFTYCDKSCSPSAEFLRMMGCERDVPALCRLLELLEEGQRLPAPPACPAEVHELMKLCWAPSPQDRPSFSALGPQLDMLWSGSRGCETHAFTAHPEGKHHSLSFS
- assay notes: Inhibition of recombinant human JAK3 (781 to end residues) using GGEEEEYFELVKKKK as substrate measured after 40 mins in presence of [gamm33P]ATP by scintillation counting method
pIC50: −log10 of the molar value.

smiles str | pIC50
CC(C)n1cc(C(=O)Nc2ccc(Oc3ccnc(NC(=O)C4CC4)c3)c(F)c2)c(=O)n(-c2ccc(F)cc2)c1=O | < 6.00

* * *

- assay notes: Half life in ICR mouse at 3 mg/kg, po measured upto 24 hrs by LC-MS analysis
- Assay type: ADME, organism-based
- assay context: in vivo

smiles str | half-life
CC(C)n1cc(C(=O)Nc2ccc(Oc3ccnc(NC(=O)C4CC4)c3)c(F)c2)c(=O)n(-c2ccc(F)cc2)c1=O | 312 min
